System: AAG
protocol: Separate in vitro equilibrium dialysis study, binding to AAG
Assay type: in vitro ADME
recordedConditions: AAG (alpha-1-acid glycoprotein)
assayEndpoint: fraction unbound at 1 µM
Give bare numbers.

Q. Entry CNC(=O)c1c(C)oc2cc(Oc3ncnc4cc(OC)c(OC)cc34)ccc12 [fruquintinib] has what fraction unbound at 1 µM?
A. 0.358

---

protocol: Plasma protein binding in human plasma at 1-10 µM
Format: in vitro ADME
assayEndpoint: fraction unbound at 1 µM
One number for each entry.

Q. Name the reported fraction unbound at 1 µM value associated with the compound CNC(=O)c1c(C)oc2cc(Oc3ncnc4cc(OC)c(OC)cc34)ccc12 [fruquintinib]
A. 0.046

---

Test system: AAG
protocol: Separate in vitro equilibrium dialysis study, binding to AAG
Format: in vitro ADME
recordedConditions: AAG (alpha-1-acid glycoprotein)
assayEndpoint: fraction unbound at 10 µM
Answers are plain numbers.

Q. Quick check: fraction unbound at 10 µM of CNC(=O)c1c(C)oc2cc(Oc3ncnc4cc(OC)c(OC)cc34)ccc12 [fruquintinib] ?
A. 0.413

---

testedTarget: HSA (Homo sapiens)
Sequence (P02768 25-609): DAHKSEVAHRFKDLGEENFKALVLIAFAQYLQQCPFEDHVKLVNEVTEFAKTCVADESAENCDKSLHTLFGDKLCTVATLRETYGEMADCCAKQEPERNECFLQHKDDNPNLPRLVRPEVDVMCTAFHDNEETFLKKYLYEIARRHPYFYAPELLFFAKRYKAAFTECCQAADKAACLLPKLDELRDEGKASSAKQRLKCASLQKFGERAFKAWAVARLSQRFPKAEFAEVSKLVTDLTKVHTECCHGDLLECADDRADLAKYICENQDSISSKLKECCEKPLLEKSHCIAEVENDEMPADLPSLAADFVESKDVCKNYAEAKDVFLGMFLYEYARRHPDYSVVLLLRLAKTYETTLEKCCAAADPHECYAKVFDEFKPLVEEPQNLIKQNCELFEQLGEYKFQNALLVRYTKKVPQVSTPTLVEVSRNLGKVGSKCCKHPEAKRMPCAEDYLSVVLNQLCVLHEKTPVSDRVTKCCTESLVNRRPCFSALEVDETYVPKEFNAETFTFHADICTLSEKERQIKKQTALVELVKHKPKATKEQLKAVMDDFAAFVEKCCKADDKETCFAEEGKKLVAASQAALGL
protocol: Separate in vitro equilibrium dialysis study, binding to HSA
Format: in vitro ADME
recordedConditions: HSA (human serum albumin)
assayEndpoint: fraction unbound at 1 µM
Answers are plain numbers.

Q. Name the reported fraction unbound at 1 µM value associated with the compound CNC(=O)c1c(C)oc2cc(Oc3ncnc4cc(OC)c(OC)cc34)ccc12
A. 0.0635

---

protocol: Plasma protein binding in human plasma at 1-10 µM
Type: in vitro ADME
assayEndpoint: fraction unbound at 10 µM
One number for each entry.

Q. Using the record for CNC(=O)c1c(C)oc2cc(Oc3ncnc4cc(OC)c(OC)cc34)ccc12 , report its fraction unbound at 10 µM.
A. 0.047

---

protocol: Plasma protein binding in human plasma at 1-10 µM
Format: in vitro ADME
assayEndpoint: fraction unbound at 3 µM

Q. I'd like to know its fraction unbound at 3 µM. The compound in question is CNC(=O)c1c(C)oc2cc(Oc3ncnc4cc(OC)c(OC)cc34)ccc12
A. 0.047
